Reference for the values: the supplement of paper PMC13380429

Test system: Vero E6 infected with SARS-CoV-2
ASSAY EXPLANATION: inhibition of SARS-CoV-2 cytopathic effect; higher = more antiviral protection, active = above 15
MEASUREMENT SETUP: 833.33 nM; 48 h
Where a name gives a salt, the structure may show the parent alone.
MEASUREMENT NAME: inhibition of SARS-CoV-2 cytopathic effect (%)
Answers are plain numbers, in %.

Worked cases, inhibition of SARS-CoV-2 cytopathic effect given:
COMPOUND	REPORTED
Nc1nccs1	2.14
CN1CC(=O)NC1=N	1.18
Cc1csc2c(N[C@@H](C)CN3CCN(S(=O)(=O)c4ccc(Cl)c(Cl)c4)CC3)ncnc12	1.34
CNC[C@H](O)[C@@H](O)[C@H](O)[C@H](O)CO	-11.4
CCC(=O)O[C@H]1CC[C@H]2[C@@H]3CCC4=CC(=O)CC[C@]4(C)[C@H]3CC[C@]12C	-13.3
O=C(Nc1ccccc1)OCC(CN1CCCCC1)OC(=O)Nc1ccccc1 (centres undefined)	-2.3
c1ccc(N2CCN(CCCOc3ccc4c(c3)OCO4)CC2)cc1	-3.5
CNCCc1cnc[nH]1 [N-alpha-methylhistamine-dihydrochloride]	-0.59
CC(=O)SCCC(=O)N1[C@H](C)CCC[C@@H]1C(=O)O	0.4
Cc1nccn1CC1CCc2c(c3ccccc3n2C)C1=O (centres undefined)	-1.32

Each compound below has a recorded value; state its inhibition of SARS-CoV-2 cytopathic effect.
1. NCC(=O)O
2. CN[C@@H]1[C@H](O)[C@H](NC)[C@H]2O[C@@]3(O)C(=O)C[C@@H](C)O[C@H]3O[C@@H]2[C@H]1O
3. CN(C)CCCN1c2ccccc2Sc2ccc(Cl)cc21
4. CC(C)[C@H](CO)Nc1nc(Nc2ccc(C(=O)O)c(Cl)c2)c2ncn(C(C)C)c2n1

Response given:
1. -1.32
2. 4.54
3. 2.32
4. 4.65
